Entries annotated with measured IC50
# TESTED SYSTEM: LPA1R (Homo sapiens, UniProt Q92633)
# Sequence (Q92633 whole entry): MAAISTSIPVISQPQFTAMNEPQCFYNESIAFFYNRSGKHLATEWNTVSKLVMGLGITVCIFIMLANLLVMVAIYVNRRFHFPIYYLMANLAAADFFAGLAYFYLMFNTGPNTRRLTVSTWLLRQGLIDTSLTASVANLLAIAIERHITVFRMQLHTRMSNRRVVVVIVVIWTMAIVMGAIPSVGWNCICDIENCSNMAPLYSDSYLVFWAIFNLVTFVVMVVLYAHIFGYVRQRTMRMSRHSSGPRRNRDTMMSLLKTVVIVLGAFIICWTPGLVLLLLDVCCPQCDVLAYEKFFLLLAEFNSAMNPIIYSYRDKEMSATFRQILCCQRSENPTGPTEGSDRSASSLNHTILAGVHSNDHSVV
# METHOD SUMMARY: Calcium flux assay: inhibition of LPA-stimulated Ca2+ flux (FLIPR, antagonist mode)
# RUN CONDITIONS: LPA1R Ca2+ flux functional assay, LPA1R expressing cells challenged with EC80 of LPA, read-out: LPA1 R Antagonist Activity

{"columns": ["SMILES NOTATION", "OBS VALUE"],
 "data": [
  ["C[C@@H](OC(=O)Nc1c(F)cnn1-c1ccc(-c2ccc(C3(C(=O)NS(C)(=O)=O)CC3)cc2F)cc1)c1ccccc1", "< 300 nM"]
]}

Continue with the next compound.
API: value(readout=IC50, system=LPA1R (Homo sapiens, UniProt Q92633)) for record C[C@@H](OC(=O)Nc1c(Cl)cnn1-c1ccc(-c2ccc(C3(C(=O)O)CC3)cc2)nc1)c1ccccc1Cl
< 300 nM
